# Test Target: T1, I-OnuI (wild type) (Ophiostoma novo-ulmi)
# T1 chain: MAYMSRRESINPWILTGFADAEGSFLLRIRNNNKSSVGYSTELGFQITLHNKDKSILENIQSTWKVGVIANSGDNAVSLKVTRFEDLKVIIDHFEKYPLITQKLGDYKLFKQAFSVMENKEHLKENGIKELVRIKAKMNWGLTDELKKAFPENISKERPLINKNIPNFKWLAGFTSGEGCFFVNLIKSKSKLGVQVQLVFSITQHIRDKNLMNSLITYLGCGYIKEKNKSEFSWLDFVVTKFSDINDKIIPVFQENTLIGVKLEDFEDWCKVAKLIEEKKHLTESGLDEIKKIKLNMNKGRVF
# Assay Protocol: flow; yeast surface display titration; unit as printed (uM)
# Condition Summary: label: fluorescent dye
Measurement Type: Kd

Name the recorded Kd of the item I-OnuI native target (dsDNA) DNA 1: TTTCCACTTATTCAACCTTTTA DNA 2: TAAAAGGTTGAATAAGTGGAAA in your answer.
~80 µM
